Molecular target: M6
Assay: ELISA on coated antigen, column M6
absorbance at 490 nm values, listed per item
Just the number, please, no unit after it.

Consider PDL1-31B7 (antibody, V domains shown, Only FR/CDR pieces are tied to the clone) VH: QVQLVESGAEVKKPGSSVKVSCKASGGTFSSYAISWVRQAPGQGLEWMGRIIPILGIANYAQKFQGRVTITADKSTSTAYMELSSLRSEDTAVYYCARASSGYSVGAFDIWGQGTMVTVSS VL: QLVLTQPPSVSAPPGQKVTISCSGSSSNIGNNYVSWYQQLPGTAPKLLIYDNNERPSGIPDRFSASKSGTSATLGISGLQTGDEADYYCGTWDSSLSAGVFGGGTKLTVL . Its measured absorbance at 490 nm is 2.9

Continue with the binder presented below.
Consider PDL1-23E5 (antibody, V domains shown, Only FR/CDR pieces are tied to the clone) VH: QVQLVQSGAEVVKPGSSVKVSCKASGDTFSRYAISWVRQAPGQAPEWMGRIIPVLGAANYARKFQDRVTITADISTTTAFMELTSLRSEDTAVYYCARSLSGYSLGAFDVWGPGTLVTVSS VL: QLVLTQPPSVSGAPGQSVSISCIGSNSNIGTPYDVHWYQQIPGEAPKLLIYGSTNRPSGVPDRFSGSRSGSSASLDITGLQADDEAYYYCQSYDRSLGVSDVVFGGGTKLTVL . Its measured absorbance at 490 nm is 2.5
